// provenance: ChEMBL document CHEMBL4342436

assay: Antiproliferative activity against human SNU601 cells assessed as reduction in cell viability after 24 hrs by CCK8 assay; assay type: functional, cell-based; details: SNU-601, 24 h

# compound, IC50
data = [
    ("COc1ccc(-c2cc(=O)c3c(O)c(OC)c(O)cc3o2)cc1OC [EUPATILIN]", "50 to 100 µM"),
]

----------
test system: XF498; assay: Cytotoxicity against human XF498 cells by SRB assay; assay type: functional, cell-based
The entries below come with measured IC50 values attached.
readout-type: IC50

# molecule, readout-type, result
measured = [
    ("COc1ccc(-c2cc(=O)c3c(O)cc(O)cc3o2)cc1 [ACACETIN]", "IC50", "0.4 to 26.8 µg/mL"),
    ("COc1cc(O)c2c(=O)cc(-c3ccc(O)cc3)oc2c1 [GENKWANIN]", "IC50", "0.4 to 26.8 µg/mL"),
    ("CC(C)=CCC[C@H](C)[C@H]1C[C@@H]2OO[C@H]1C=C2C", "IC50", "0.1 to 0.87 µg/mL"),
    ("CC(C)=CCC[C@H](C)[C@H]1C[C@H]2OO[C@@H]1C=C2C", "IC50", "0.2 to 5.43 µg/mL"),
    ("CC1=CC(=O)C2=C(C)CC[C@@H]3[C@H](OC(=O)[C@H]3C)[C@@H]12 [DESACETOXYMATRICARIN]", "IC50", "0.4 to 26.8 µg/mL"),
    ("C=C1C(=O)O[C@@H]2C[C@@]3(C)C=CC(=O)C(C)=C3C[C@H]12", "IC50", "0.4 to 26.8 µg/mL"),
    ("COc1cc2ccc(=O)oc2c(OC)c1O", "IC50", "0.4 to 26.8 µg/mL"),
]
